system: NCI-H2009; assay: relative viability (nuclei count vs DMSO), 5 days (fraction); higher = more cells survive; conditions: first compound 0.4 µM
The label true (1) is reserved for relative viability strictly under 1; false (0) covers values equal to or above it.

>>> label_value("O=C(O)c1ccc(-c2c[nH]c3ncc(-c4ccccc4)cc23)cc1C1CCCC1 + COc1cc2c(Oc3ccc(NC(=O)C4(C(=O)Nc5ccc(F)cc5)CC4)cc3F)ccnc2cc1OCCCN1CCOCC1 [Foretinib] (partner 0.25 µM)")
"false (0)"
>>> label_value("O=C(O)c1ccc(-c2c[nH]c3ncc(-c4ccccc4)cc23)cc1C1CCCC1 + Nc1nc2[nH]cc(CCc3ccc(C(=O)N[C@@H](CCC(=O)O)C(=O)O)cc3)c2c(=O)[nH]1 [Pemetrexed] (partner 0.2 µM)")
"false (0)"
>>> label_value("O=C(O)c1ccc(-c2c[nH]c3ncc(-c4ccccc4)cc23)cc1C1CCCC1 + COc1cccc2cc(-c3nc([C@H]4CC[C@H](C(=O)O)CC4)n4ncnc(N)c34)[nH]c12 [OSI-027] (partner 0.5 µM)")
"true (1)"
>>> label_value("O=C(O)c1ccc(-c2c[nH]c3ncc(-c4ccccc4)cc23)cc1C1CCCC1 + Nc1ncn([C@H]2C[C@H](O)[C@@H](CO)O2)c(=O)n1 [Decitabine] (partner 2 µM)")
"true (1)"

Report whether reported relative viability is lower than 1 (strictly) for O=C(O)c1ccc(-c2c[nH]c3ncc(-c4ccccc4)cc23)cc1C1CCCC1 + C[C@]1(O)C[C@@H](c2nc(-c3ccc4ccc(-c5ccccc5)nc4c3)c3c(N)nccn32)C1 [Linsitinib] (partner 1 µM)
false (0)

Report whether reported relative viability is lower than 1 (strictly) for O=C(O)c1ccc(-c2c[nH]c3ncc(-c4ccccc4)cc23)cc1C1CCCC1 + Cc1nc(NC(=O)N2CCC[C@H]2C(N)=O)sc1-c1ccnc(C(C)(C)C(F)(F)F)c1 [Alpelisib] (partner 2 µM)
false (0)
